Molecular target: Glycogen synthase kinase-3 beta (Homo sapiens)
Sequence (P49841 whole entry): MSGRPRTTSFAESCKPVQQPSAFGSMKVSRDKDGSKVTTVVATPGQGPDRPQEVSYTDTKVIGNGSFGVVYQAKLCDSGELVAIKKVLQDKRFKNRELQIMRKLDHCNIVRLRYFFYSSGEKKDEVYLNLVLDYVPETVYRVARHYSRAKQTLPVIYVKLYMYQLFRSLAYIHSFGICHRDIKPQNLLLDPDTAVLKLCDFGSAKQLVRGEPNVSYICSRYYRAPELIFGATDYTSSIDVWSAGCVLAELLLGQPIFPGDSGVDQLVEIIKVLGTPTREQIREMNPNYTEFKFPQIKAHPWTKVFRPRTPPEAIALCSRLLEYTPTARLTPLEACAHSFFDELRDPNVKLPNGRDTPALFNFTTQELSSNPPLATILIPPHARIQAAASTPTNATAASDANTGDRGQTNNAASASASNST
Experiment: Inhibition of human recombinant GSK3beta using prephosphorylated GS1 peptide as substrate after 1 hr by liquid scintillation spectrometry
pIC50: −log10 of the molar value.
Entry flag: Satisfied if pIC50 reaches 7; Not satisfied if it does not.

* CCCn1c(CCCc2ccccc2)nc(-c2ccncc2)cc1=O | Not satisfied
* O=c1cc(-c2ccncc2)nc(CCCc2ccccc2)[nH]1 | Not satisfied
* Cn1c(NCC(=O)c2cccc(Cl)c2)nc(-c2ccncc2)cc1=O | Satisfied

## Task Can "CC(C)c1nc(-c2ccncc2)cc(=O)[nH]1" be said to have pIC50 at or above 7?
## Result Not satisfied
